So I've got a bunch of binders here, and I need their pKi values.
# TESTED_TARGET: T1, human melanocortin-4 receptor (human, UniProt P32245 1-332)
# T1 construct: whole, on cells; Ki assay used membrane homogenates of HEK-293 cells expressing recombinant hMC4r; also called MC4r; hMC4r
# T1 sequence (P32245 whole entry): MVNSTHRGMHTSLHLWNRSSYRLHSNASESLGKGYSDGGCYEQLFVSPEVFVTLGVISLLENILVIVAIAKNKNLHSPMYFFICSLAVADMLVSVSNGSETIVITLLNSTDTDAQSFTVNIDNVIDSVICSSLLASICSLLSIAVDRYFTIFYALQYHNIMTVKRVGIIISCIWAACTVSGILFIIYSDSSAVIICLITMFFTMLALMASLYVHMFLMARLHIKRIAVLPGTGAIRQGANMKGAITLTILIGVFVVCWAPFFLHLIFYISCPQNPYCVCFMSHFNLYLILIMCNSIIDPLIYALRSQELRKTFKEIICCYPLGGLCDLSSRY
# RUN_DESCRIPTION: [I125]-NDP-α-MSH competition, hMC4r HEK-293 membranes
Numbered stars: 1 amine (or outer) side, 2 acyl side, 3 side chain; on linkers, the order of the positions; unused ones are H or OH. Bridge positions count the residues as written; N and C are the ends. Square brackets hold non-standard residues; d marks the D form. * marks the point of attachment. Cyclohexanecarbonyl = O=C(C1CCCCC1)*; Cyclopentylacetyl = O=C(CC1CCCC1)*; Cyclopropanecarbonyl = O=C(C1CC1)*; Suc = O=C(CCC(=O)[*:2])[*:1]; Heptanoyl = CCCCCCC(=O)*; Nle = CCCC[C@H](N)C(=O)O; Dab = NCC[C@H](N)C(=O)O; Hexanoyl = CCCCCC(=O)*; PhAc = O=C(Cc1ccccc1)*
The quantity pKi is defined as the negative base-10 logarithm of the molar concentration.

Returns the measured pKi for the input binder. Input: Cyclopentylacetyl-EH[dF]R[Dab]W-NH2 (lactam 1-5, also called 9.21) [cyclopentyl acetyl-cyclo(Glu-His-D-Phe-Arg-Dab)-Trp-NH2]
7.03

Returns the measured pKi for the input binder. Input: Ac-[Nle]CH[dF]RCW-NH2 (disulfide 2-6, also called 9.5) [Ac-Nle-cyclo(Cys-His-D-Phe-Arg-Cys)-Trp-NH2]
6.27

Returns the measured pKi for the input binder. Input: Cyclopropanecarbonyl-EH[dF]R[Dab]W-NH2 (lactam 1-5; SMILES N=C(N)NCCC[C@@H]1NC(=O)[C@@H](Cc2ccccc2)NC(=O)[C@H](Cc2c[nH]cn2)NC(=O)[C@@H](NC(=O)C2CC2)CCC(=O)NCC[C@@H](C(=O)N[C@@H](Cc2c[nH]c3ccccc23)C(N)=O)NC1=O, also called 9.19) [cyclo-propanoyl-cyclo(Glu-His-D-Phe-Arg-Dab)-Trp-NH2]
6.19

Returns the measured pKi for the input binder. Input: Cyclohexanecarbonyl-EH[dF]R[Dab]W-NH2 (lactam 1-5, also called 9.20) [cyclo-hexanoyl-cyclo(Glu-His-D-Phe-Arg-Dab)-Trp-NH2]
6.78

Returns the measured pKi for the input binder. Input: [Suc]HFR[Dab]W-NH2 (lactam N-5; SMILES N=C(N)NCCC[C@@H]1NC(=O)[C@H](Cc2ccccc2)NC(=O)[C@H](Cc2c[nH]cn2)NC(=O)CCC(=O)NCC[C@@H](C(=O)N[C@@H](Cc2c[nH]c3ccccc23)C(N)=O)NC1=O, also called 9.14) [cyclo(Suc-His-Phe-Arg-Dab)-Trp-NH2]
5.00

Returns the measured pKi for the input binder. Input: Ac-[Nle]EH[dF]RKW-NH2 (lactam 2-6, also called 9.1) [Ac-Nle-cyclo(Glu-His-D-Phe-Arg-Lys)-Trp-NH2]
7.35

Returns the measured pKi for the input binder. Input: Ac-FEH[dF]R[Dab]W-NH2 (lactam 2-6, also called 9.13) [Ac-Phe-cyclo(Glu-His-D-Phe-Arg-Dab)-Trp-NH2]
6.29

Returns the measured pKi for the input binder. Input: PhAc-EH[dF]R[Dab]W-NH2 (lactam 1-5, also called 9.23) [phenyl acetyl-cyclo(Glu-His-D-Phe-Arg-Dab)-Trp-NH2]
6.69

Returns the measured pKi for the input binder. Input: Hexanoyl-EH[dF]R[Dab]W-NH2 (lactam 1-5, also called 9.17) [CH3-(CH2)4-C(═O)-cyclo(Glu-His-D-Phe-Arg-Dab)-Trp-NH2]
6.96

Returns the measured pKi for the input binder. Input: Heptanoyl-EH[dF]R[Dab]W-NH2 (lactam 1-5, also called 9.18) [CH3-(CH2)5-C(═O)-cyclo(Glu-His-D-Phe-Arg-Dab)-Trp-NH2]
7.00
